System: Caco-2 cells
Assay: Caco-2 permeability assay
Assay type: in vitro ADME, human
Conditions: test concentration 1.0E−06 M

MOLECULE	MeanRecovery (B-A)
CC(C)(C)NC[C@@H](O)COc1cccc2[nH]cc(CC(N)=O)c12 [CD3-403]	94%
Cc1c[nH]c2cccc(OC[C@H](O)CNC(C)(C)C)c12 [CD3-T1]	87%
CC(C)NC[C@@H](O)COc1cccc2[nH]cc(CC(=O)N(C)C)c12 [CD3-T3]	90%

* * *

Molecular target: human β2-AR (Homo sapiens)
Sequence (P07550 whole entry): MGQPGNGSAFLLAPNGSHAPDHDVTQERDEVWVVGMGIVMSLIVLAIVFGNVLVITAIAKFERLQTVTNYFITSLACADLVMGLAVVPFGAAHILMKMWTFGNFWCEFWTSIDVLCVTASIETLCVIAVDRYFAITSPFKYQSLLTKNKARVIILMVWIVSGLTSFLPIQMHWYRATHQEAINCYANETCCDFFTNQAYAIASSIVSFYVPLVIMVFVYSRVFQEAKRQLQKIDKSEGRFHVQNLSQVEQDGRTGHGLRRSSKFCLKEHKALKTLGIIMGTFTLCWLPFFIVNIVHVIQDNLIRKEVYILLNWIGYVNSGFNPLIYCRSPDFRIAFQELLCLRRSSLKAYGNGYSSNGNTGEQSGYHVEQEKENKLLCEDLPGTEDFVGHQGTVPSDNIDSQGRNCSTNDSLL
Experiment: Calcium response (Fluo-4) in Flp-In-293 cells stably transfected with ADRB2 and GNA15
Assay type: cell-based
Details: summary of screening; read-out: IC50
READOUT_NAME: IC50 (nM)

COMPOUND	READOUT_NAME	MEASURED
CC(C)(C)NCC(O)COc1cccc2[nH]cc(CC(=O)NN)c12 (racemic)	IC50	70
Cc1c[nH]c2cccc(OC[C@H](O)CNC(C)(C)C)c12	IC50	6
CC(C)(C)NC[C@@H](O)COc1cccc2[nH]cc(CC(N)=O)c12	IC50	46
CC(C)NC[C@@H](O)COc1cccc2[nH]cc(CC(=O)N(C)C)c12	IC50	78

Values from patent US20250312310A1
